assay-procedure: Inhibition of quorum sensing system in Pseudomonas aeruginosa PAO1 at logarithmic growth period assessed as inhibition of pyocyanin production at 102.4 microg/ml incubated for 18 hrs by pyocyanin inhibition assay
assay-setup: dose 102.4 µg/ml
Activity calls are given as the source filed them. The rule behind the calls is not given here.
Could you please pick one outcome from this set? label 1 for active, label 0 for inactive

Worked set:
| structure-as-smiles | cat |
| --- | --- |
| O=C(CCCCOc1ccc(Cl)cc1)NNc1nc2ccccc2o1 | label 1 |
| O=C(CCCCCOc1ccc(F)cc1)NNc1nc2ccccc2o1 | label 0 |
| COc1cccc(/C=N/Nc2nc3ccccc3o2)c1 | label 0 |
| COc1ccc(OCCCCC(=O)NNc2nc3ccccc3o2)cc1 | label 1 |

Kindly provide the recorded test outcome for the following compound: CCCC(=O)N/N=c1\sc2ccccc2n1C
label 1

Kindly provide the recorded test outcome for the following compound: O=C(CCCOc1ccc(C(F)(F)F)cc1)NNc1nc2ccccc2o1
label 0

Kindly provide the recorded test outcome for the following compound: O=C(CCCCOc1ccc(Cl)cc1)NNc1nc2ccccc2s1
label 1

Kindly provide the recorded test outcome for the following compound: Clc1ccc(/C=N/Nc2nc3ccccc3o2)cc1Cl
label 0

Kindly provide the recorded test outcome for the following compound: Clc1ccc(/C=N/Nc2nc3ccccc3o2)cc1
label 0

Kindly provide the recorded test outcome for the following compound: O=[N+]([O-])c1ccccc1/C=N/Nc1nc2ccccc2o1
label 0

Kindly provide the recorded test outcome for the following compound: O=C(CCCOc1ccc(Cl)cc1)NNc1nc2ccccc2o1
label 0

Kindly provide the recorded test outcome for the following compound: O=C(CCCOc1cccc(F)c1)NNc1nc2ccccc2o1
label 0

Kindly provide the recorded test outcome for the following compound: CCCCCCCCC(=O)N/N=c1\sc2ccccc2n1C
label 1

Kindly provide the recorded test outcome for the following compound: CCCCC(=O)N/N=c1\sc2ccccc2n1C
label 1

Kindly provide the recorded test outcome for the following compound: Brc1ccccc1/C=N/Nc1nc2ccccc2o1
label 0

====

This listing pairs compounds with measured MIC.
System: Bacillus pumilus
assay-procedure: Anti-microbial activity against Bacillus pumilus CMCC63202 incubated for 20 hrs By CLSI based micro-dilution method
Type: functional

Value sought: MIC, system Bacillus pumilus, item O=C(COc1cccc(F)c1)NNc1nc2ccccc2o1 . Result: > 512 µg/mL

Value sought: MIC, system Bacillus pumilus, item O=C(CCCOc1cccc(C(F)(F)F)c1)NNc1nc2ccccc2o1 . Result: > 512 µg/mL

Value sought: MIC, system Bacillus pumilus, item Cc1ccc(C(=O)N/N=c2\sc3ccccc3n2C)cc1 . Result: > 512 µg/mL

Value sought: MIC, system Bacillus pumilus, item O=C(NNc1nc2ccccc2s1)c1cccc(Cl)c1 . Result: 256 µg/mL

Value sought: MIC, system Bacillus pumilus, item COc1cccc(/C=N/Nc2nc3ccccc3o2)c1 . Result: 512 µg/mL

====

assay-procedure: Inhibition of quorum sensing system in Pseudomonas aeruginosa PAO1 at logarithmic growth period assessed as inhibition of pyocyanin production at 102.4 microg/ml incubated for 18 hrs by pyocyanin inhibition assay
assay-setup: dose 102.4 µg/ml
Activity calls are given as the source filed them. The calls are words filed in the database; no cut-off is given here.
measurement-kind: inhibition

| structure-as-smiles | measurement-kind | reading |
| --- | --- | --- |
| Cn1c(=NNC(=O)CCCCOc2ccc(Cl)cc2)sc2ccccc21 | inhibition | Active |
| Cc1cccc2sc(NNC(=O)CCCCOc3ccc(Cl)cc3)nc12 | inhibition | 42.2% |
| O=C(NNc1nc2ccccc2s1)c1ccccc1F | inhibition | 62.8% |
| O=C(CCCCOc1ccc(Cl)cc1)NNc1nc2ccc(Cl)cc2o1 | inhibition | Active |
